B1: NF2 (merlin) isoform 7, human, full length (507 aa, lacks exons 2-3 = isoform-1 residues 39-121; exon-16 C-terminus), P35240-4 (parent)
chain: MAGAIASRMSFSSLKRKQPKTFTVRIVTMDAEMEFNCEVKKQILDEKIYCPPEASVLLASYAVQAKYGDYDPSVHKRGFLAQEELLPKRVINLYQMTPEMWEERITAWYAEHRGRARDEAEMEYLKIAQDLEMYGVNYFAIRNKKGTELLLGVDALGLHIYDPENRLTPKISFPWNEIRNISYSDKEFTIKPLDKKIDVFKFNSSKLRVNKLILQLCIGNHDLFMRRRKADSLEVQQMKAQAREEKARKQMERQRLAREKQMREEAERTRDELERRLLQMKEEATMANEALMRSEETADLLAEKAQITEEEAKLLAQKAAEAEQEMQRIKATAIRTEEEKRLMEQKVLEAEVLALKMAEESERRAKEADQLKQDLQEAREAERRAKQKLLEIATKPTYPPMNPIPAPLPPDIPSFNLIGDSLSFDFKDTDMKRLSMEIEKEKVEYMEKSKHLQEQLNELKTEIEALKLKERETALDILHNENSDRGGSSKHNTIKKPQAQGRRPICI

# Variants of: B1
# PROTOCOL_SUMMARY: reverse yeast two-hybrid deep mutational scan (rY2H-seq): NF2 isoform 7 mutant library as bait mated with wild-type prey strains; selection on medium lacking adenine for non-interacting pairs; NextSeq paired-end sequencing; enrichment vs …
# PROTOCOL_CONDITIONS: with KDM1A (lysine-specific histone demethylase 1A; the table's label AOF2 is a gene synonym of KDM1A), O60341; yeast diploids after mating (RBait_S3 x RPrey_S3), 30 °C, selection for reporter genes on NB agar; human ABL2 co-expressed as the kinase-dead K35M mutant …; HIGHER = WEAKER BINDING (the opposite of display enrichments): higher = stronger loss of interaction: reverse Y2H selects yeast in which bait and prey do NOT interact (growth without adenine), so a …; hits-only table; scale: rY2H score; numbering: uniprot, sequence starts at 1
Everything with enrichment lower than 2 is no (0); everything else, including exactly 2, is yes (1).

T332E yes (1)
L417I yes (1)
K356L yes (1)
G501C no (0)

Problem: Assess whether reported enrichment for L348K sits at 2 or higher.
Result: yes (1)

Problem: Hi team, for Q345T , is the recorded enrichment at or above 2?
Result: yes (1)

Problem: Identify whether the reported enrichment of the following variant is 2 or greater: K313A
Result: no (0)

Problem: Is reported enrichment greater than or equal to 2 here: R166G
Result: no (0)

Problem: Quick check: does V56K have enrichment greater than or equal to 2?
Result: yes (1)

Problem: Identify whether the reported enrichment of the following variant is 2 or greater: S483A
Result: yes (1)
